# TESTED_ON: LDL particle (all LDL-P; ApoB100 lipoprotein) (UniProt P04114)
# Sequence (P04114 whole entry): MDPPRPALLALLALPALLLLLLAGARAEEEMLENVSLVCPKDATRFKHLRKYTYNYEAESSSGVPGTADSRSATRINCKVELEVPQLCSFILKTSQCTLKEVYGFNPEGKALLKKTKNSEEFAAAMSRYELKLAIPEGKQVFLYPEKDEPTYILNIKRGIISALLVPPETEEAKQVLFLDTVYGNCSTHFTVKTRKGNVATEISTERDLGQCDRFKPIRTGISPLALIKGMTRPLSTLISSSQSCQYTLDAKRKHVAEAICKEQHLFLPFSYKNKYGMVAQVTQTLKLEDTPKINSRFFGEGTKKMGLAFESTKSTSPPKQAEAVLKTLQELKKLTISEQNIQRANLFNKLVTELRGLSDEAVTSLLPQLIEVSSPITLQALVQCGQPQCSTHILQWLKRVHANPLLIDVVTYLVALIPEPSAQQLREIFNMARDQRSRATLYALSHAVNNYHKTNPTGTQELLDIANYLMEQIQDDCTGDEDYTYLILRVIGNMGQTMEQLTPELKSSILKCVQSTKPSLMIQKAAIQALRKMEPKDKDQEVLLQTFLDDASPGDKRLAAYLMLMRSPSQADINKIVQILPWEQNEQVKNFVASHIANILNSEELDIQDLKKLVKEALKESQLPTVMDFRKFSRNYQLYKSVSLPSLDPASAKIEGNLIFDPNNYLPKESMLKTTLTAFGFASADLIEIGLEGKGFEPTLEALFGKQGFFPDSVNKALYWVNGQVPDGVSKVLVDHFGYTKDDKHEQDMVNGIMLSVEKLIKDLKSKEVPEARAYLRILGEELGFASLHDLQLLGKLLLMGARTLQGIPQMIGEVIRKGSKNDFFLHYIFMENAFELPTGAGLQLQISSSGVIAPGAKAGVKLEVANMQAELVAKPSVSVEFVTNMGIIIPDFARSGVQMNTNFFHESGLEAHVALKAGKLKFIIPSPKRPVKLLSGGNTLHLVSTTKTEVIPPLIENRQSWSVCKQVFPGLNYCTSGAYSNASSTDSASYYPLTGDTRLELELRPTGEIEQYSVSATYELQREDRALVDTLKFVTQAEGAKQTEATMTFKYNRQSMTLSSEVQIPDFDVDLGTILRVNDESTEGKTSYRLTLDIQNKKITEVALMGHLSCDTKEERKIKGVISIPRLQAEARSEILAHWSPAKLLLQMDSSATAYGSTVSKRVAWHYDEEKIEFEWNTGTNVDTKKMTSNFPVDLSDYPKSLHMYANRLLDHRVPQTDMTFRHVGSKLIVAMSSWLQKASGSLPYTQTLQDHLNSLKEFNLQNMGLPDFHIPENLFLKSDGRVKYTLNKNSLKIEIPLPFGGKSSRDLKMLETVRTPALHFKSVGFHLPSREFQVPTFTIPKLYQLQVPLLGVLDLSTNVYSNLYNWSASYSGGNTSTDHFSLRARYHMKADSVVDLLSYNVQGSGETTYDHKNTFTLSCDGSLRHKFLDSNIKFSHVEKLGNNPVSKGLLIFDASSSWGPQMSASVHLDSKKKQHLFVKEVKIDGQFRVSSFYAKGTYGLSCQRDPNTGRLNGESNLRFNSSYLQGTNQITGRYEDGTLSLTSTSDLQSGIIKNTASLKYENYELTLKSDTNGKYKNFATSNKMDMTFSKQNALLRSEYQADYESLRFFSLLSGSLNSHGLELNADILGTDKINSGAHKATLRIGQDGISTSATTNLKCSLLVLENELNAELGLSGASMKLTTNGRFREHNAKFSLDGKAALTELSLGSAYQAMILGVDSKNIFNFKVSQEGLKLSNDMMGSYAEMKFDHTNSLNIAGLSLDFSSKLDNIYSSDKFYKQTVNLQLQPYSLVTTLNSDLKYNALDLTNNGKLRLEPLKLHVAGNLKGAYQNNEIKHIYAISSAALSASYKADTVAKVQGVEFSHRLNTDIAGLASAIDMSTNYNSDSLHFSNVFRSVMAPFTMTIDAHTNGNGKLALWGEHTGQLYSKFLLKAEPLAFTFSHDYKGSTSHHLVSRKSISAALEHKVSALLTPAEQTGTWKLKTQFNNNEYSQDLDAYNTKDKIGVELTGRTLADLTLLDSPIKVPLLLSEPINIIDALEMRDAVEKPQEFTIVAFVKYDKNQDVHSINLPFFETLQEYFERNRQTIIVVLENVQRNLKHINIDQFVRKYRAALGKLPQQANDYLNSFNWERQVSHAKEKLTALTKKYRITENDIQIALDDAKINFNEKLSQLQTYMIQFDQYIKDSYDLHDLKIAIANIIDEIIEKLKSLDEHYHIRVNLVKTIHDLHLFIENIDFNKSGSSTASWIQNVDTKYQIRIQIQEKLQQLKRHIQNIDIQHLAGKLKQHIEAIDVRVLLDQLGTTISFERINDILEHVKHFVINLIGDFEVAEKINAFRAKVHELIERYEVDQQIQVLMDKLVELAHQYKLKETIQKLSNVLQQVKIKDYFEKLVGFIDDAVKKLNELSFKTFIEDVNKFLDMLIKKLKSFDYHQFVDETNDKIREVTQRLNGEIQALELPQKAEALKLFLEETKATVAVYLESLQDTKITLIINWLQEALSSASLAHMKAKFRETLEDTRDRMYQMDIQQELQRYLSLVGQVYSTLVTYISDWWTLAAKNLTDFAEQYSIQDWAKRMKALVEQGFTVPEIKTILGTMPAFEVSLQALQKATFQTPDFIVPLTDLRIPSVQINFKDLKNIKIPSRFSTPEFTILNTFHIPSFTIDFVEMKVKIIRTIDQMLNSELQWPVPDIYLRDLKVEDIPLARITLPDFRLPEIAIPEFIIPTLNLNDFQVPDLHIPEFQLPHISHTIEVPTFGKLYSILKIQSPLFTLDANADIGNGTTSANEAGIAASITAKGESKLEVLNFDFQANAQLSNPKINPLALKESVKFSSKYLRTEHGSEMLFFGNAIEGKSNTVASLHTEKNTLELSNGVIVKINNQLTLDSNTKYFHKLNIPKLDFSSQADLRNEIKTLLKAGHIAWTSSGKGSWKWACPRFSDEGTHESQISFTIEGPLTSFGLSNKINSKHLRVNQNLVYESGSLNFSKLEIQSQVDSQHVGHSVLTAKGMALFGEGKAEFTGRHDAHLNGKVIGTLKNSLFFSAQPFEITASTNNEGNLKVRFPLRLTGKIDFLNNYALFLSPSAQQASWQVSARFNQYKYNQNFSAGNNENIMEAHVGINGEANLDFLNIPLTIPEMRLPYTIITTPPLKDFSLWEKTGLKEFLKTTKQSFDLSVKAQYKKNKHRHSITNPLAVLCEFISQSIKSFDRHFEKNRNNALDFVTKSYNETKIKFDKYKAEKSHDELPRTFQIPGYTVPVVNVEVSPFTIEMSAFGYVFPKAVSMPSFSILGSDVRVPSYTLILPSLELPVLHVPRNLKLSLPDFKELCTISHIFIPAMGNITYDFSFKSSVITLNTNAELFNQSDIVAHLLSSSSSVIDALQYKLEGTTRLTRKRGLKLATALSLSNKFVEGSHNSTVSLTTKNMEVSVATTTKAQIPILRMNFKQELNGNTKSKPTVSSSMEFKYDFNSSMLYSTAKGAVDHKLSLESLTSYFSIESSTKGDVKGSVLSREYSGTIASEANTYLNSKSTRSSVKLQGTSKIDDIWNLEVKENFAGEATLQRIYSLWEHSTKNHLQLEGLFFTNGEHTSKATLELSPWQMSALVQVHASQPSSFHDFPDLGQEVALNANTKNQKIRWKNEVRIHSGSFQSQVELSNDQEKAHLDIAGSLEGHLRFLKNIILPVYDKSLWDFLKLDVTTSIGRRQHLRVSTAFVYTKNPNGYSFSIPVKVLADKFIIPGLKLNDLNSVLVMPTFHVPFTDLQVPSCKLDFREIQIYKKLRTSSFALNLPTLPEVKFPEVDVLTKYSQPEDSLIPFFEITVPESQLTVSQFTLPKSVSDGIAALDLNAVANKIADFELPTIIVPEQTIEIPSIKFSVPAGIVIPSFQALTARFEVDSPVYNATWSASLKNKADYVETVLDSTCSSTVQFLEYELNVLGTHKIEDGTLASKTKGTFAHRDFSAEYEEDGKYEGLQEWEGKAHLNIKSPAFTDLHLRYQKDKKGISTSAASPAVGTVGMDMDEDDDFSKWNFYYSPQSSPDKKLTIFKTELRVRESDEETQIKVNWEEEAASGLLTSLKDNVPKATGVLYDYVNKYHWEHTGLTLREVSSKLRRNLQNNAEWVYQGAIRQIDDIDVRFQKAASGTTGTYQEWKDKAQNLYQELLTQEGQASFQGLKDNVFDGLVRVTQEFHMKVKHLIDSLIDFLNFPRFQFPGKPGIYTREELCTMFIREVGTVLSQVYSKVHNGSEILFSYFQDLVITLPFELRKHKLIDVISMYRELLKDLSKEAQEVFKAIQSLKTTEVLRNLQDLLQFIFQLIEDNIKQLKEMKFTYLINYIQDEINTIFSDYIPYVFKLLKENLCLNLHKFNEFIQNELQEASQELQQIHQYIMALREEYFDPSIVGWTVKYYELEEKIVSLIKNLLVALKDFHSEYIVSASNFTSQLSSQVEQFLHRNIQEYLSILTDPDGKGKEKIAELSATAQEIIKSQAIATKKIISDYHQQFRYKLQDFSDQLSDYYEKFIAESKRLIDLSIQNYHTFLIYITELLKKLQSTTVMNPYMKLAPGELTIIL
# EXPERIMENT_NOTES: SPRi
# RUN_PARAMETERS: 5' disulfide, aptamer on gold chip, 10 mM HEPES, 120 mM NaCl, 10 mM KCl, 5 mM MgCl2, pH 7.4, targets in PBS with 0.1% Tween, random-DNA signal subtracted, temperature …
READOUT: Kd (pM)
Answer format: numeric, pM implied, no suffix.

Query (sequence): AACTACATGGTATGTGGTGAACTACCTCGATTTTATATTATTTCGCTTACCAACAACTGCAGAGACGTACAATGTACCC [LDL-A1] ; field requested: Kd
21.4
